These entries and their values trace back to PubChem BioAssay AID248.

System: L1210 leukemia ip in BDF1 mice, survival T/C
Test Method Notes: NCI In Vivo Anticancer Drug Screen. Data for tumor model L1210 Leukemia (intraperitoneal) in B6D2F1 (BDF1) mice
Particulars: endpoint: mean survival time; dose: 200.0 mg/kg/injection; schedule: Q01DX009 (ip); vehicle: Klucel (hydroxypropylcellulose) (HPC); higher = longer survival
Inconclusive results and toxic doses are left out.
Please respond with reported T/C for every item in the list.

Endpoint output: T/C of CSCc1ccc([N+](=O)[O-])cc1 . Value?
103 % of control

Endpoint output: T/C of CCN(CC)C(N)=S . Value?
100 % of control

Endpoint output: T/C of CCC(CO)Nc1nc2ccccc2c2ccccc12 (centres undefined) . Value?
97 % of control

Endpoint output: T/C of CCOC1=CCN(S(=O)(=O)c2ccc(C)cc2)c2ccc(OC)cc21 . Value?
96 % of control

Endpoint output: T/C of CCOc1ccccc1NC(=O)c1c(Br)c(Br)c(Br)c(Br)c1C(=O)O . Value?
102 % of control

Endpoint output: T/C of CCCCOC(=O)OCNC(=O)Oc1ccc(Br)cc1Br . Value?
94 % of control

Endpoint output: T/C of COc1ccc(COC(=O)Nc2ccc([N+](=O)[O-])cc2OC)cc1 . Value?
91 % of control

Endpoint output: T/C of Nc1ccc(CCc2ccc(N)cc2[N+](=O)[O-])c([N+](=O)[O-])c1 . Value?
101 % of control

Endpoint output: T/C of O=C(Nc1cc(F)ccc1F)Oc1cccnc1 . Value?
100 % of control

Endpoint output: T/C of O=S(=O)(F)c1cc(Cl)c(O)cc1Cl . Value?
101 % of control

Endpoint output: T/C of O=C(O)c1c(Cl)c(Cl)c(Cl)c(Cl)c1C(=O)Nc1cccc(C(F)(F)F)c1 . Value?
97 % of control

Endpoint output: T/C of CCCCCCCCCC(=O)N/N=C/c1c[nH]c2ccccc12 . Value?
114 % of control

Endpoint output: T/C of O=C(Nc1cccc(F)c1)Nc1cc([N+](=O)[O-])ccc1Cl . Value?
94 % of control

Endpoint output: T/C of CCOC(=O)NC(C(=O)OC)C(=O)OC . Value?
97 % of control

Endpoint output: T/C of COc1c([N+](=O)[O-])cc(C(=O)O)cc1[N+](=O)[O-] . Value?
98 % of control

Endpoint output: T/C of CCCCCCCCCCCCSC(SCCCCCCCCCCCC)c1ccc(OCC(=O)O)cc1 . Value?
94 % of control

Endpoint output: T/C of CCOC(=O)c1ccc(NC(=O)/C=C/c2ccccc2)cc1 . Value?
95 % of control

Endpoint output: T/C of CC(C)=CCC(=O)NC(=O)NS(=O)(=O)c1ccc(C)cc1 . Value?
100 % of control

Endpoint output: T/C of O=C(O)c1cc(=O)cc(C(=O)O)[nH]1 . Value?
96 % of control

Endpoint output: T/C of CCCCN1C(=O)C2CC=C3C=CN4C(C3C2C1=O)C1C(=O)N(CCCC)C(=O)C1C41CC(=O)N(CCCC)C1=O (centres undefined) . Value?
91 % of control

Endpoint output: T/C of CC12C=CC3(CCC4C(C)(C)C(O)C(=O)CC4(C)C3CC1=O)C2 (centres undefined) . Value?
97 % of control

Endpoint output: T/C of Cc1c(Cl)cccc1NC(=O)C(c1ccccc1)c1ccccc1 . Value?
94 % of control

Endpoint output: T/C of CC12C(C#N)=C(c3ccccc3)C=C(c3ccccc3)C1=C(c1ccccc1)c1ccccc12 (centres undefined) . Value?
100 % of control

Endpoint output: T/C of COc1cc(OC)c(NC(=O)/C=C/c2ccccc2)cc1Cl . Value?
100 % of control

Endpoint output: T/C of COC(C)C(O)(C(N)=O)C(C)C (centres undefined) . Value?
98 % of control

Endpoint output: T/C of CC(=O)c1ccc(C(C)=O)c(OCc2ccccc2)c1 . Value?
95 % of control

Endpoint output: T/C of O=C(NCCCl)NC1CCCCCCCCCCC1 . Value?
97 % of control

Endpoint output: T/C of CCOC(=O)/C(C#N)=C\c1ccc(N(C)CCC#N)cc1 . Value?
96 % of control

Endpoint output: T/C of Cc1cccc(NC(=O)Nc2cccc(Cl)c2Cl)n1 . Value?
92 % of control

Endpoint output: T/C of COC(=O)C1CC(=O)C(C(=O)OC)CC1=O (centres undefined) . Value?
92 % of control

Endpoint output: T/C of O=C(O)c1cccc(OCc2ccccc2)c1 . Value?
100 % of control

Endpoint output: T/C of CC(C)(CSCCSCC(C)(C)C(=O)O)C(=O)O . Value?
94 % of control

Endpoint output: T/C of O=C(NCCO)Nc1ccc(Cl)c(Cl)c1 . Value?
103 % of control

Endpoint output: T/C of CCCCN(Cc1ccccc1)C(=S)Nc1ccccc1 . Value?
108 % of control

Endpoint output: T/C of FC(F)(F)c1ccc(Cl)c(NC2=NCCCS2)c1 . Value?
97 % of control

Endpoint output: T/C of CC(C)(C)C(=O)CC(=O)C(C)(C)C.CC(C)(C)C(=O)CC(=O)C(C)(C)C.CC(C)(C)C(=O)CC(=O)C(C)(C)C.CC(C)(C)C(=O)CC(=O)C(C)(C)C.[Ce] . Value?
96 % of control

Endpoint output: T/C of O=C1OC(c2cccc3c(F)cccc23)c2ccccc21 (centres undefined) . Value?
95 % of control

Endpoint output: T/C of CC1(C)C=CC(=NO)C=C1 . Value?
97 % of control

Endpoint output: T/C of COc1cccc2c1OC1(N3CCOCC3)CCCCC1C2C[N+](=O)[O-] (centres undefined) . Value?
105 % of control

Endpoint output: T/C of NC(=O)NC(=O)/C=C\C(=O)O . Value?
91 % of control

Endpoint output: T/C of CC(=O)Nc1ccc(NC(=O)Nc2cc(Cl)ccc2C)cc1 . Value?
93 % of control

Endpoint output: T/C of COc1ccc(OC)c(NC(=O)c2c(Br)c(Br)c(Br)c(Br)c2C(=O)O)c1 . Value?
97 % of control

Endpoint output: T/C of Cc1cccc(SC(=O)Nc2cc([N+](=O)[O-])ccc2Cl)c1 . Value?
98 % of control

Endpoint output: T/C of COc1ccc(C(=O)CC(=O)CC(=O)c2ccccc2)cc1 . Value?
102 % of control

Endpoint output: T/C of CC1=CCCC(C)(C)C1/C=C/C(=O)O (centres undefined) . Value?
97 % of control

Endpoint output: T/C of CCCCCCCCC(=O)N1CC1 . Value?
96 % of control

Endpoint output: T/C of O=C1/C(=C/c2cccnc2)CCc2ccccc21 . Value?
112 % of control

Endpoint output: T/C of CC(=O)OI(OC(C)=O)c1ccc(-c2ccccc2)cc1 . Value?
102 % of control

Endpoint output: T/C of COc1ccc(/C=N/NC(=S)Nc2ccccc2)cc1 . Value?
95 % of control
